- System: MRSA
- METHOD DESCRIPTION: MIC, broth microdilution, clinical isolates: MRSA
- Format: cell-based, Staphylococcus aureus
- CONDITION DETAILS: Staphylococcus aureus, MRSA; 42 clinical isolates; read-out: MIC90
EXPERIMENTAL READOUT: MIC90

Prompt: Suppose we examine the molecule CC(C)(O/N=C(\C(=O)N[C@@H]1C(=O)N2C(C(=O)[O-])=C(C[n+]3ccccc3)CS[C@H]12)c1csc(N)n1)C(=O)O [Ceftazidime] ; what MIC90 value has been reported?
Response: > 32 µg/mL

Prompt: Form field: reported MIC90 of C[C@H]1COc2c(N3CCN(C)CC3)c(F)cc3c(=O)c(C(=O)O)cn1c23 [Levofloxacin]
Response: > 32 µg/mL

Prompt: // MIC90 lookup, key: CO[C@@H](C(N)=O)[C@H](NC(=O)c1ccc(NC(=O)c2ccc([N+](=O)[O-])cc2)cc1)C(=O)Nc1ccc(C(=O)Nc2ccc(C(=O)Nc3ccc(C(=O)O)cc3OC(C)C)c(O)c2OC(C)C)cc1 [DH-coralmycin A]
Response: 8 µg/mL

Prompt: Field request: MIC90 | item: CNC(C)C1CCC(N)C(OC2C(N)CC(N)C(OC3OCC(C)(O)C(NC)C3O)C2O)O1 (centres unmarked) [Gentamicin]
Response: > 32 µg/mL

Prompt: May I ask what MIC90 has been recorded for Cc1onc(-c2ccccc2)c1C(=O)N[C@@H]1C(=O)N2[C@@H]1SC(C)(C)[C@@H]2C(=O)O [Oxacillin] ?
Response: > 32 µg/mL

###

- System: CNS (coagulase-negative staphylococci)
- METHOD DESCRIPTION: MIC, broth microdilution, clinical isolates: CNS
- Type: cell-based
- CONDITION DETAILS: 31 clinical isolates; read-out: MIC50
- Description: To assess the MICs for antibiotic susceptibility, Gram-positive bacteria isolated from human clinical specimens were obtained from several general hospitals in Seoul, Korea, during 2002–2018. […] The MICs of the antimicrobial agents were determined by a twofold microdilution broth method, as described by the Clinical and Laboratory Standards Institute. […]
EXPERIMENTAL READOUT: log10(MIC50) (log10 of the value in µg/mL)
Lab note - MIC50 converted to log10 from values in µg/mL.

Prompt: Requested field: log10(MIC50). Item: CO[C@@H](C(N)=O)[C@H](NC(=O)c1ccc(NC(=O)c2ccc([N+](=O)[O-])cc2)cc1)C(=O)Nc1ccc(C(=O)Nc2ccc(C(=O)Nc3ccc(C(=O)O)cc3OC(C)C)c(O)c2OC(C)C)cc1 [DH-coralmycin A]
Response: 0.00

Prompt: Which log10(MIC50) is reported for this molecule? CC(=O)NC[C@H]1CN(c2ccc(N3CCOCC3)c(F)c2)C(=O)O1 [Linezolid]
Response: 0.30

Prompt: Could you tell me which log10(MIC50) is on file for CC(C)(O/N=C(\C(=O)N[C@@H]1C(=O)N2C(C(=O)[O-])=C(C[n+]3ccccc3)CS[C@H]12)c1csc(N)n1)C(=O)O [Ceftazidime] ?
Response: 1.51

Prompt: Suppose we examine the molecule CO[C@@H](C(N)=O)[C@H](NC(=O)c1ccc(NC(=O)c2ccc([N+](=O)[O-])cc2)cc1)C(=O)Nc1ccc(C(=O)Nc2ccc(C(=O)Nc3ccc(C(=O)O)c(O)c3OC(C)C)c(O)c2OC(C)C)cc1 [Coralmycin A, coralmycin A] ; what log10(MIC50) value has been reported?
Response: -0.60

Prompt: Consider the molecule CCCCCCCCCC(=O)N[C@@H](Cc1c[nH]c2ccccc12)C(=O)N[C@H](CC(N)=O)C(=O)N[C@@H](CC(=O)O)C(=O)N[C@@H]1C(=O)NCC(=O)N[C@@H](CCCN)C(=O)N[C@@H](CC(=O)O)C(=O)N[C@H](C)C(=O)N[C@@H](CC(=O)O)C(=O)NCC(=O)N[C@H](CO)C(=O)N[C@@H]([C@H](C)CC(=O)O)C(=O)N[C@@H](CC(=O)c2ccccc2N)C(=O)O[C@@H]1C [Daptomycin] and give its measured log10(MIC50).
Response: 0.30

Prompt: Fill in: log10(MIC50) of C[C@H]1COc2c(N3CCN(C)CC3)c(F)cc3c(=O)c(C(=O)O)cn1c23 [Levofloxacin] is ___
Response: 0.90

###

- System: Vancomycin-sensitive E. faecium
- METHOD DESCRIPTION: MIC, broth microdilution, clinical isolates: vancomycin-sensitive E. faecium
- Type: cell-based, Enterococcus faecium
- CONDITION DETAILS: Enterococcus faecium; 32 clinical isolates; read-out: MIC90
Kindly supply the reported MIC90 values for the records listed here.
API: value field is a number in µg/mL; no unit string.

Prompt: Report MIC90 for CCCCCCCCCC(=O)N[C@@H](Cc1c[nH]c2ccccc12)C(=O)N[C@H](CC(N)=O)C(=O)N[C@@H](CC(=O)O)C(=O)N[C@@H]1C(=O)NCC(=O)N[C@@H](CCCN)C(=O)N[C@@H](CC(=O)O)C(=O)N[C@H](C)C(=O)N[C@@H](CC(=O)O)C(=O)NCC(=O)N[C@H](CO)C(=O)N[C@@H]([C@H](C)CC(=O)O)C(=O)N[C@@H](CC(=O)c2ccccc2N)C(=O)O[C@@H]1C please.
Response: 8

Prompt: Which measured MIC90 value corresponds to CO[C@@H](C(N)=O)[C@H](NC(=O)c1ccc(NC(=O)c2ccc([N+](=O)[O-])cc2)cc1)C(=O)Nc1ccc(C(=O)Nc2ccc(C(=O)Nc3ccc(C(=O)O)cc3OC(C)C)c(O)c2OC(C)C)cc1 ?
Response: 4

###

For each of the compounds below, state its MIC90.
- System: Vancomycin-sensitive E. faecium
- METHOD DESCRIPTION: MIC, broth microdilution, clinical isolates: vancomycin-sensitive E. faecium
- Assay type: cell-based, Enterococcus faecium
- CONDITION DETAILS: Enterococcus faecium; 32 clinical isolates; read-out: MIC90
Give your result in µg/mL as a bare value.

Prompt: Which MIC90 value is on record for CC(=O)NC[C@H]1CN(c2ccc(N3CCOCC3)c(F)c2)C(=O)O1 ?
Response: 4

Prompt: Request the reported MIC90 associated with C[C@H]1COc2c(N3CCN(C)CC3)c(F)cc3c(=O)c(C(=O)O)cn1c23
Response: 32

###

- Test system: MRSA
- METHOD DESCRIPTION: MIC, broth microdilution, clinical isolates: MRSA
- Format: cell-based, Staphylococcus aureus
- CONDITION DETAILS: Staphylococcus aureus, MRSA; 42 clinical isolates; read-out: MIC90
EXPERIMENTAL READOUT: MIC90 (µg/mL)
Output spec: scalar in µg/mL, unitless text.

Prompt: May I ask what MIC90 has been recorded for CC(=O)NC[C@H]1CN(c2ccc(N3CCOCC3)c(F)c2)C(=O)O1 ?
Response: 4

Prompt: Would you mind telling me what MIC90 value was observed for CCCCCCCCCC(=O)N[C@@H](Cc1c[nH]c2ccccc12)C(=O)N[C@H](CC(N)=O)C(=O)N[C@@H](CC(=O)O)C(=O)N[C@@H]1C(=O)NCC(=O)N[C@@H](CCCN)C(=O)N[C@@H](CC(=O)O)C(=O)N[C@H](C)C(=O)N[C@@H](CC(=O)O)C(=O)NCC(=O)N[C@H](CO)C(=O)N[C@@H]([C@H](C)CC(=O)O)C(=O)N[C@@H](CC(=O)c2ccccc2N)C(=O)O[C@@H]1C ?
Response: 4

###

Consider the following molecules; for each one, report its MIC50.
- Tested on: MSSA
- METHOD DESCRIPTION: MIC, broth microdilution, clinical isolates: MSSA
- Type: cell-based
- CONDITION DETAILS: Staphylococcus aureus, 26 clinical isolates, read-out: MIC50
# do not omit the unit; it follows the number

Prompt: Write down the reported MIC50 of CNC(C)C1CCC(N)C(OC2C(N)CC(N)C(OC3OCC(C)(O)C(NC)C3O)C2O)O1 (stereo not drawn) [Gentamicin] , test system: MSSA.
Response: 1 µg/mL

Prompt: Enter reported MIC50 observed with MSSA for CC(C)(O/N=C(\C(=O)N[C@@H]1C(=O)N2C(C(=O)[O-])=C(C[n+]3ccccc3)CS[C@H]12)c1csc(N)n1)C(=O)O [Ceftazidime]
Response: 8 µg/mL

Prompt: Which MIC50 is reported with MSSA for this entry: Cc1onc(-c2ccccc2)c1C(=O)N[C@@H]1C(=O)N2[C@@H]1SC(C)(C)[C@@H]2C(=O)O [Oxacillin] ?
Response: 0.5 µg/mL

Prompt: Notebook: pull reported MIC50 for MSSA, entry CO[C@@H](C(N)=O)[C@H](NC(=O)c1ccc(NC(=O)c2ccc([N+](=O)[O-])cc2)cc1)C(=O)Nc1ccc(C(=O)Nc2ccc(C(=O)Nc3ccc(C(=O)O)c(O)c3OC(C)C)c(O)c2OC(C)C)cc1 [Coralmycin A, coralmycin A]
Response: 0.5 µg/mL

Prompt: Please tell me: MIC50 of CO[C@@]1(NC(=O)Cc2cccs2)C(=O)N2C(C(=O)O)=C(COC(N)=O)CS[C@@H]21 [Cefoxitin] , system MSSA?
Response: 4 µg/mL

Prompt: Provide value of MIC50 for this record tested with MSSA: CC(=O)NC[C@H]1CN(c2ccc(N3CCOCC3)c(F)c2)C(=O)O1 [Linezolid]
Response: 2 µg/mL

Prompt: Which MIC50 is reported with MSSA for this entry: CO[C@@H](C(N)=O)[C@H](NC(=O)c1ccc(NC(=O)c2ccc([N+](=O)[O-])cc2)cc1)C(=O)Nc1ccc(C(=O)Nc2ccc(C(=O)Nc3ccc(C(=O)O)cc3OC(C)C)c(O)c2OC(C)C)cc1 [DH-coralmycin A] ?
Response: 1 µg/mL

Prompt: What MIC50 appears in the records for this molecule with MSSA? C[C@H]1COc2c(N3CCN(C)CC3)c(F)cc3c(=O)c(C(=O)O)cn1c23 [Levofloxacin]
Response: 0.25 µg/mL

Prompt: Lookup: MIC50 / MSSA / CCCCCCCCCC(=O)N[C@@H](Cc1c[nH]c2ccccc12)C(=O)N[C@H](CC(N)=O)C(=O)N[C@@H](CC(=O)O)C(=O)N[C@@H]1C(=O)NCC(=O)N[C@@H](CCCN)C(=O)N[C@@H](CC(=O)O)C(=O)N[C@H](C)C(=O)N[C@@H](CC(=O)O)C(=O)NCC(=O)N[C@H](CO)C(=O)N[C@@H]([C@H](C)CC(=O)O)C(=O)N[C@@H](CC(=O)c2ccccc2N)C(=O)O[C@@H]1C [Daptomycin]
Response: 2 µg/mL
